system: HCC-2998 colon; assay: NCI-60 one-dose screen, 48 h (100 = growth as untreated, 0 = no growth, -100 = all killed); details: 10 µM unless noted
Compounds without any hit were thinned out: in the full panel of roughly 83,000, 20% have a hit.
Quantity kind: growth (%)
Numbers only; they are read as %.

Below, 8 molecules whose answers are already recorded.
QUERY: Please indicate growth recorded for `CCNC(=S)N(Cc1ccccc1)Cc1ccccc1`
RESULT: 98.3

QUERY: Please indicate growth recorded for `Cc1cc(C)c2c(n1)sc1c(Nc3ccc(Cl)cc3Cl)ncnc12`
RESULT: 58.6

QUERY: Please indicate growth recorded for `C[C@@H](C[C@H](CC1CC1)c1ccccc1)c1ccc2ccccc2c1`
RESULT: 101

QUERY: Please indicate growth recorded for `CCCCCCCCCC1=NC(C)(C)CN1C(C)(C)CO`
RESULT: 84.1

QUERY: Please indicate growth recorded for CC1=C(C(=O)Nc2ccc(F)cc2)C(c2ccccc2)C2=C(CC(C)(C)CC2=O)N1 (configuration not stated)
RESULT: 103

QUERY: Please indicate growth recorded for `c1ccc2c(c1)cnc1ccccc12`
RESULT: 101

QUERY: Please indicate growth recorded for `COc1cc2nccc(Oc3ccc(NC(=O)C4(C(=O)Nc5ccc(F)cc5)CC4)cc3)c2cc1OC(=O)c1ccc(N)cc1`
RESULT: 25.8

QUERY: Please indicate growth recorded for `CCN(CC)C(Cl)=Nc1ccc(Cl)cc1`
RESULT: 101

New cases:
QUERY: Please indicate growth recorded for `O=C(NC1CC1)c1ccc(-c2nc3ccc4[nH]ncc4c3c3c2CCCC3)cc1`
RESULT: 51.1

QUERY: Please indicate growth recorded for Nc1n[nH]c2ccc([C@@H]3Nc4c(F)cc5[nH]ncc5c4[C@H]4C5CCC(C5)[C@@H]34)cc12 (some centres not stated)
RESULT: 28.1

QUERY: Please indicate growth recorded for `[O-]/[N+](=C\c1ccccc1)CC1(O)CCCCC1`
RESULT: 115

QUERY: Please indicate growth recorded for CCCCNCC(O)c1cc2c(Cl)cc(Cl)cc2c2cc(C(F)(F)F)ccc12 (configuration not stated)
RESULT: -72

QUERY: Please indicate growth recorded for `Nc1c(C(=O)Nc2cccc(Cl)c2)sc2ncc(Br)cc12`
RESULT: 99.7

QUERY: Please indicate growth recorded for `C=CCOc1c(Br)cc(Br)cc1Br`
RESULT: 95.1

QUERY: Please indicate growth recorded for `C=CCn1c(SCC(=O)Nc2ccc(/C(C)=N\O)cc2)nnc1-c1cc(-c2ccc(Cl)cc2)nc2ccccc12`
RESULT: 21

QUERY: Please indicate growth recorded for `CCCCCCCCCCCCCCC(C(=O)OCC)C(=O)OCC`
RESULT: 106

QUERY: Please indicate growth recorded for `Nc1nonc1-c1nc2ccccc2n1Cc1ccc(F)cc1`
RESULT: 58.8

QUERY: Please indicate growth recorded for `Nc1c(C(=O)c2ccc(Br)cc2)sc2nc3c(cc12)CCCC3`
RESULT: 99.6

###

system: OVCAR-8 ovarian; test: NCI-60 one-dose screen, 48 h (100 = growth as untreated, 0 = no growth, -100 = all killed); settings: 10 µM unless noted
Compounds without any hit were thinned out: in the full panel of roughly 83,000, 20% have a hit.
Output class 1 for growth not less than 90%; output class 0 otherwise.

QUERY: Is reported growth greater than or equal to 90% here: `Cc1n(Cc2ccc3ccccc3n2)cc[n+]1Cc1ccc2ccccc2c1`
RESULT: class 0

###

System: LOX IMVI melanoma
Experiment: NCI-60 one-dose screen, 48 h
Conditions: 10 µM unless noted
Protocol: Growth inhibition of the LOX IMVI human tumor cell line is measured as a screen for anti-cancer activity. Cells are grown in 96 well plates and exposed to the test compound for 48 hours. Compounds are tested at a single concentration, which is 10^-5 M for most compounds. The reported endpoint is percent growth (GI% or GIPRCNT), where numbers from 0 - 100% represent growth inhibition, and numbers from -100% - 0 represent cell death. For example, a value of 40 represents 60% growth inhibition. […]
About 83,000 compounds went through this panel and 20% of them were active in at least one assay; those are over-represented in the sample as a whole. Active and inactive are the calls of the source. Rule for the calls: active = growth percent below 10; inactive = the rest.
Choose the fitting class; nothing outside 1.0 (active), 0.0 (inactive) is accepted.

QUERY: Recorded test outcome, item `COc1ccc(/C(=C\c2cc(OC)c(OC)c(OC)c2)C(=O)N2CCNCC2)cc1`
RESULT: 0.0

QUERY: Recorded test outcome, item `CCNC(=S)N(Cc1ccccc1)Cc1ccccc1`
RESULT: 0.0

QUERY: Recorded test outcome, item `CS(=O)(=O)Nc1cc(-c2cc3ncc(C#N)c(Nc4ccc(Oc5ccccc5)c(Cl)c4)c3s2)cnc1Cl`
RESULT: 0.0

New cases:
QUERY: Recorded test outcome, item `CC(C)NCCCCCNc1cc(O)cc2cccnc12`
RESULT: 0.0

QUERY: Recorded test outcome, item CCC(C)C1NC(=O)c2nc(oc2-c2ccccc2)-c2csc(n2)-c2csc(n2)-c2nc(oc2C)-c2coc(n2)CNC(=O)C(C(C)CC)NC1=O (stereo not given)
RESULT: 1.0

###

system: MDA-MB-435 melanoma; test: NCI-60 one-dose screen, 48 h; settings: 10 µM unless noted
About 83,000 compounds went through this panel and 20% of them were active in at least one assay; those are over-represented in the sample as a whole. Calls of active or inactive are those of the source. The calls were made as follows: active = growth percent below 10; inactive = the rest.
Choose the fitting class; nothing outside T (active), F (inactive) is accepted.

QUERY: Recorded test outcome, item `CC(=O)O[C@H]1[C@H](CC#CC#CC[C@@H]2C[C@]3(C)[C@H]4CC=C5[C@H]6[C@@H](C)[C@H](C)CC[C@]6(C(=O)NCCCCCCCCN)CC[C@@]5(C)[C@]4(C)CC[C@H]3C(C)(C)[C@H]2OC(C)=O)C[C@]2(C)[C@H]3CC=C4[C@H]5[C@@H](C)[C@H](C)CC[C@]5(C(=O)NCCCCCCCCN)CC[C@@]4(C)[C@]3(C)CC[C@H]2C1(C)C`
RESULT: F

New cases:
QUERY: Recorded test outcome, item `O=C1C=CC(=O)N1CO`
RESULT: F

QUERY: Recorded test outcome, item `Clc1ccc2c(c1)-c1ccccc1C1=NCCN12`
RESULT: F

QUERY: Recorded test outcome, item OC(c1cc2cc(Cl)ccc2c2cc(C(F)(F)F)ccc12)C1CCCCN1 (stereo not drawn)
RESULT: T

QUERY: Recorded test outcome, item `C=CCn1c(SCC(=O)Nc2ccc(/C(C)=N\O)cc2)nnc1-c1cc(-c2ccccc2)nc2ccccc12`
RESULT: F

QUERY: Recorded test outcome, item `C[C@@H]1C[C@H](N)C[C@H](c2ccncc2NC(=O)c2ccc(F)c(-c3c(F)cccc3F)n2)C1`
RESULT: F

QUERY: Recorded test outcome, item COC1=CC(c2ccc[nH]2)=N/C1=C\c1[nH]c(C)c(C(=O)CCCCCCCCC(=O)O[C@H]2CC[C@H]3C4CCc5cc(O)ccc5C4CC[C@]23C)c1C (stereo partly drawn)
RESULT: F

QUERY: Recorded test outcome, item `COc1ccc(/C=C(/C(=O)N2CCN(c3ccccc3)CC2)c2cc(OC)c(OC)c(OC)c2)cc1N`
RESULT: T

QUERY: Recorded test outcome, item `CC(C)[C@H](CN)NC[C@H](C)NS(=O)(=O)c1ccc(C(C)(C)C)cc1`
RESULT: F

QUERY: Recorded test outcome, item `O=C(CCCCCCc1nc2ccc(Br)cc2[nH]1)NO`
RESULT: T

QUERY: Recorded test outcome, item `F`
RESULT: T

QUERY: Recorded test outcome, item `CCCCCCCCCCCCCC[N+](C)(C)CCCCCCCCCCCCCC`
RESULT: F

QUERY: Recorded test outcome, item `O=C1OC(c2ccc(-c3ccccc3)cc2)=C/C1=C/c1c(Cl)cccc1Cl`
RESULT: F

QUERY: Recorded test outcome, item CNCc1ccccc1CN(CC(=O)Nc1ccc2c(c1)CC1(C2)C(=O)Nc2ncccc21)C(=O)C(C)(C)C (stereo not drawn)
RESULT: F

QUERY: Recorded test outcome, item `Cc1c(-c2ccc(-c3ccccc3F)cc2)nc2ccc(F)cc2c1C(=O)O`
RESULT: F

QUERY: Recorded test outcome, item `O=c1cc(-c2ccc3c(c2)OCCO3)oc2cc(Cl)ccc12`
RESULT: T

QUERY: Recorded test outcome, item Cc1ccc(NC(=O)c2nc(S(C)=O)oc2-c2ccc(F)cc2)cc1Nc1nccc(-c2cccnc2)n1 (stereo not drawn)
RESULT: F

QUERY: Recorded test outcome, item CCCOC(=O)C1c2cc3c(cc2CC(C)C1C(=O)OCCC)OCO3 (stereo not drawn)
RESULT: F

###

test system: SN12C renal; experiment: NCI-60 one-dose screen, 48 h; conditions: 10 µM unless noted
This is part of a sample that, as a whole, favours compounds with a hit. Of some 83,000 tested, about 20% had one in any assay. The source made the active and inactive calls. The calls were made as follows: active = growth percent below 10; inactive = the rest.
Choose the fitting class; nothing outside active, inactive is accepted.

# example entries with known answers
QUERY: Recorded test outcome, item `Cc1cc2nc3c(=O)[nH]c(=O)nc-3n(CC=O)c2cc1C`
RESULT: inactive

QUERY: Recorded test outcome, item Nc1nc(N)c2c(n1)NC(c1sc(Cl)nc1Cl)CC(c1ccc3c(c1)OCO3)=N2 (stereo unspecified)
RESULT: inactive

New cases:
QUERY: Recorded test outcome, item `CCCCCNCCCCCNc1cc(OC)cc2cccnc12`
RESULT: inactive

QUERY: Recorded test outcome, item `O=C(/C=C/c1cccc([N+](=O)[O-])c1)c1ccc(Nc2nc(N3CCCCC3)nc(N3CCCCC3)n2)cc1`
RESULT: inactive

QUERY: Recorded test outcome, item `CCCCCCCCCCCCCC(=S)NCCCC[C@H](NC(=O)OCc1ccccc1)C(=O)Nc1ccccc1`
RESULT: inactive

QUERY: Recorded test outcome, item `CC[C@H](Nc1nc(C)nc(N)c1C#N)c1nc2cccc(NCc3ccc(C(=O)NO)cc3)c2c(=O)n1-c1ccccc1`
RESULT: active

QUERY: Recorded test outcome, item `Clc1cc(Br)ccc1-c1ccc(CNCC2CCNCC2)o1`
RESULT: inactive

QUERY: Recorded test outcome, item COc1cc(NC(C)CCCN)c2ncccc2c1Sc1ccc(Cl)cc1 (stereo unspecified)
RESULT: inactive

QUERY: Recorded test outcome, item COc1ccc(-c2nsc3c2NC(=O)CC3c2cccc(F)c2)cc1 (stereo unspecified)
RESULT: inactive

Each recorded value in this set is attributed to PubChem BioAssay (NCI).
